Target Of Assay: Human plasma kallikrein (Homo sapiens (Human))
Test Summary: Kallikrein Assay (fluorogenic substrate Acetyl-K-P-R-AFC)
Run Parameters: Plasma Kallikrein (PKal)
Result Type: IC50 (nM)

A selection of reference data follows.
Compound: Cc1nc(N2C[C@H]3C[C@H]3C2=O)ncc1Cn1ncc(NC(=O)c2nc(-c3c(C(F)F)ccc(Cl)c3F)cnc2C)n1
IC50 (nM): 8.1
//
Compound: Cc1nc(C(C)n2cc(NC(=O)c3cncc(-c4c(C(F)F)ccc(Cl)c4F)n3)cn2)ccc1N1C[C@H]2C[C@H]2C1=O (single isomer, unassigned) [Example 61]
IC50 (nM): 0.7
//
Compound: Cc1nc(N2C[C@H]3C[C@H]3C2=O)ncc1C(C)n1cc(NC(=O)c2nc(-c3c(C(F)F)ccc(Cl)c3F)cnc2CO)cn1 (single isomer, unassigned) [Example 194]
IC50 (nM): 0.5
//
Compound: Cc1nc(C(C)n2cc(NC(=O)c3cncc(-c4c(C(F)F)ccc(Cl)c4F)n3)cn2)cnc1N1C[C@H]2C[C@H]2C1=O (single isomer, unassigned) [Example 12]
IC50 (nM): 1.9
//
Compound: Cc1cc(N2C[C@H]3C[C@H]3C2=O)cnc1C(C)n1cc(NC(=O)c2cncc(-c3c(C(F)F)ccc(Cl)c3F)n2)cn1 (single isomer, unassigned)
IC50 (nM): 4.2

(1) Cc1ncc(-c2c(C(F)F)ccc(Cl)c2F)nc1C(=O)Nc1cnn(C(C)c2cnc(N3C[C@H]4C[C@H]4C3=O)c(Cl)c2)c1 (stereo partly shown) [Example 92]
(2) Cc1cc(C(C)n2cc(NC(=O)c3cc(-c4c(C(F)F)ccc(Cl)c4F)nnc3C)cn2)cnc1N1C[C@H]2C[C@H]2C1=O (single isomer, unassigned) [Example 121]
Q: Which of the two gives a bigger number for IC50: 1 or 2 ? Indicate your choice by writing its label.
Result: 2
(2: 4.5 nM, 1: 1.3 nM)

(I) CC(c1cnc(N2CC3CC3C2=O)nc1)n1cc(NC(=O)c2cncc(-c3c(OC(F)F)ccc(Cl)c3F)n2)cn1 (single isomer, unassigned) [Example 73]
(II) Cc1cc(N2C[C@H]3C[C@H]3C2=O)ccc1C(C)n1cc(NC(=O)c2cncc(-c3c(C(F)F)ccc(Cl)c3F)n2)cn1 (single isomer, unassigned) [Example 99]
Q: Lab log: flag the item ( I or II ) with the smaller IC50 figure. I would appreciate it if you answered with the label of your choice.
Result: I
(I: 23.1 nM, II: 49.1 nM)

(I) Cc1nc(C(C)n2cc(NC(=O)c3nc(-c4c(C(F)F)ccc(Cl)c4F)cnc3C)cn2)ccc1N1C[C@H]2C[C@H]2C1=O (single isomer, unassigned) [Example 58]
(II) Cc1nc(N2C[C@H]3C[C@H]3C2=O)ncc1Cn1cc(NC(=O)c2nc(-c3c(C(F)F)ccc(Cl)c3F)cnc2C)cn1
(III) Cc1cc(C(C)n2cc(NC(=O)c3cc(-c4c(C(F)F)ccc(Cl)c4F)c[n+]([O-])c3)cn2)cnc1N1C[C@H]2C[C@H]2C1=O (single isomer, unassigned) [Example 106]
(IV) Cc1ccc(Cl)c(F)c1-c1cnc(C)c(C(=O)Nc2cnn(Cc3nnc(N4C[C@H]5C[C@H]5C4=O)c(C)c3C)c2)n1
(V) Cc1nc(N2C[C@H]3C[C@H]3C2=O)ncc1Cn1cc(NC(=O)c2cncc(-c3c(C(F)F)ccc(Cl)c3F)n2)cn1
Q: Please list these compounds in decreasing order of IC50. Write out the labels following the order that was asked for.
Result: V, IV, II, III, I

(A) Cc1nc(N2C[C@H]3C[C@H]3C2=O)ncc1Cn1cc(NC(=O)c2nc(-c3c(OC(F)F)ccc(Cl)c3F)cnc2C)cn1
(B) Cc1cc(C(C)n2cc(NC(=O)c3nc(-c4c(C(F)F)ccc(Cl)c4F)cnc3C)cn2)cnc1N1C[C@H]2C[C@H]2C1=O (single isomer, unassigned) [Example 120]
Q: In the pair A and B , the larger recorded IC50 belongs to which? Write down the label attached to your selection.
Result: A
(A: 3 nM, B: 0.5 nM)

----------
Target Of Assay: human Factor XIa (Homo sapiens (Human))
Sequence (P03951 388-625 limits assumed): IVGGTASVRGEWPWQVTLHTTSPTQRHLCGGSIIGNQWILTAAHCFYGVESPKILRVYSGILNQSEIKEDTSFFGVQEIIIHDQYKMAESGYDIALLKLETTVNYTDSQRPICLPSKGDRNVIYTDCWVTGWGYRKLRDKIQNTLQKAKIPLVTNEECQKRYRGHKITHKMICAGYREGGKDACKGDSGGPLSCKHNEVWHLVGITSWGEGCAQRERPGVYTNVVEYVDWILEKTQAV
Sequence (P03951 19-387 partner limits assumed): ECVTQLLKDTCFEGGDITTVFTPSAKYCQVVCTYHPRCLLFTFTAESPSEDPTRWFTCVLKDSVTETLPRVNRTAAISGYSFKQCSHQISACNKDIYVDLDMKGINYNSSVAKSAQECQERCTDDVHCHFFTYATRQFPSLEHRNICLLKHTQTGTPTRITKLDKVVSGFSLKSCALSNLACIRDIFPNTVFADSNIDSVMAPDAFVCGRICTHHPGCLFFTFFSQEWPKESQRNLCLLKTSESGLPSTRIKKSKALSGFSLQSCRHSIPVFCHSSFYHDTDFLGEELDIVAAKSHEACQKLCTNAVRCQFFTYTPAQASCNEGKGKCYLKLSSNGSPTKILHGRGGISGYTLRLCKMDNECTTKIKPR
Result Type: IC50 (µM)

The following compounds have reported results that may help.
Compound: Cc1ncc(-c2c(C#N)ccc(Cl)c2F)nc1C(=O)Nc1cnn(C(C)c2cnc(N3C[C@H]4C[C@H]4C3=O)c(F)c2C)c1 (single isomer, unassigned)
IC50 (µM): 0.591

Compound: Cc1cc(N2C[C@H]3C[C@H]3C2=O)ncc1C(C)n1cc(NC(=O)c2cncc(-c3c(C(F)F)ccc(Cl)c3F)n2)cn1 (single isomer, unassigned)
IC50 (µM): 5.25

Compound: CC(c1cnc(N2Cc3ncccc3C2=O)nc1)n1cc(NC(=O)c2cncc(-c3c(C(F)F)ccc(Cl)c3F)n2)cn1 (racemic)
IC50 (µM): 5.65

(1) Cc1ncc(-c2c(C(F)F)ccc(Cl)c2F)nc1C(=O)Nc1cnn(C(C)c2cnc(N3C[C@H]4C[C@H]4C3=O)c3c2OCO3)c1 (single isomer, unassigned)
(2) Cc1c(C(C)n2cc(NC(=O)c3cncc(-c4c(OC(F)F)ccc(Cl)c4F)n3)cn2)cnc(N2C[C@H]3C[C@H]3C2=O)c1F (single isomer, unassigned)
(3) Cc1ncc(-c2c(C(F)F)ccc(Cl)c2F)nc1C(=O)Nc1cn(Cc2cnc(N3C[C@H]4C[C@H]4C3=O)c(C)n2)nn1
(4) Cc1cc(C(C)n2cc(NC(=O)c3nc(-c4c(C#N)ccc(Cl)c4F)cnc3C)cn2)cnc1N1C[C@H]2C[C@H]2C1=O (single isomer, unassigned)
Q: Order the records so the highest IC50 appears first and the lowest last. I would appreciate it if you listed the labels in the requested order.
Result: 2, 3, 1, 4

----------
Target Of Assay: Human plasma kallikrein (Homo sapiens (Human), UniProt P03952)
Sequence (P03952 391-638): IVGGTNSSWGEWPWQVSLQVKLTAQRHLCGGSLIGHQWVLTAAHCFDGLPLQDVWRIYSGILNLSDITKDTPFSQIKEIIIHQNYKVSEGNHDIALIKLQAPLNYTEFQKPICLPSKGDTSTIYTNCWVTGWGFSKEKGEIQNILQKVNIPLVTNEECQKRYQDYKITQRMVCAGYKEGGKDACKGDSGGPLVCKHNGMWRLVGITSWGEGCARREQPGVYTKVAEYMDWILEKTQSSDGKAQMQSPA
Sequence (P03952 20-390 partner): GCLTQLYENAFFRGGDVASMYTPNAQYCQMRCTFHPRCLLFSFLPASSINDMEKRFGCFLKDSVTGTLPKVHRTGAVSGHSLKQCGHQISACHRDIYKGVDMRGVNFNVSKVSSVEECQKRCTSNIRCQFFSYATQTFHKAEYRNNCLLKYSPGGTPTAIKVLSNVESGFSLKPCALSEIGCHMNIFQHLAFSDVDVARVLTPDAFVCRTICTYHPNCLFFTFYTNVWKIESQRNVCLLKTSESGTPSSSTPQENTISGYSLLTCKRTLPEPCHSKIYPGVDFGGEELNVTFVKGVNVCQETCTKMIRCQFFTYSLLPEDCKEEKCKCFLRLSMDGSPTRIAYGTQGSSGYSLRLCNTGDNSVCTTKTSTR
Test Summary: Kallikrein Assay (fluorogenic substrate Acetyl-K-P-R-AFC)
Run Parameters: Plasma Kallikrein (PKal)
pIC50: −log10 of the molar value.
Result Type: pIC50

Compound: CCc1ncc(-c2c(C(F)F)ccc(Cl)c2F)nc1C(=O)Nc1cnn(C(C)c2cc(C)c(N3C[C@H]4C[C@H]4C3=O)nn2)c1 (single isomer, unassigned) [Example 239]
pIC50: 8.74

(I) Cc1ncc(-c2c(C(F)F)ccc(Cl)c2F)nc1C(=O)Nc1cnn(C(C)c2cnc(N3C[C@H]4C[C@H]4C3=O)c(C)n2)c1 (single isomer, unassigned) [Example 14]
(II) Cc1nc(C(C)n2cc(NC(=O)c3cncc(-c4c(C(F)F)ccc(Cl)c4F)n3)cn2)ccc1N1C[C@H]2C[C@H]2C1=O (single isomer, unassigned) [Example 60]
Q: Given the listed records, identify the one among I and II with higher pIC50. Pick one and reply with its label.
Result: I

----------
Target Of Assay: Human plasma kallikrein (Homo sapiens (Human), UniProt P03952)
Test Summary: Kallikrein Assay (fluorogenic substrate Acetyl-K-P-R-AFC)
Run Parameters: Plasma Kallikrein (PKal)
Result Type: IC50 (nM)

Compound: Cc1ncc(-c2c(C(F)F)ccc(Cl)c2F)nc1C(=O)Nc1cnn(Cc2ncc(N3C[C@H]4C[C@H]4C3=O)cc2F)c1
Reading Unit: nM
Numeric Value: 47
//
Compound: CCc1nc(C(C)n2cc(NC(=O)c3cncc(-c4c(C(F)F)ccc(Cl)c4F)n3)cn2)cnc1N1C[C@H]2C[C@H]2C1=O (single isomer, unassigned) [Example 55]
Reading Unit: nM
Numeric Value: 5.8
//
Compound: C[C@@H](c1cnc(N2C[C@H]3C[C@H]3C2=O)nc1)n1cc(NC(=O)c2nc(-c3c(C(F)F)ccc(Cl)c3F)cnc2COC(C)(C)C)cn1
Reading Unit: nM
Numeric Value: 4.4

(P) Cc1ncc(-c2c(C(F)F)ccc(Cl)c2F)nc1C(=O)Nc1cnn(C(CO)c2cnc(N3C[C@H]4C[C@H]4C3=O)nc2)c1 (single isomer, unassigned) [Example 164]
(Q) Cc1c(C(C)n2cc(NC(=O)c3cncc(-c4c(OC(F)F)ccc(Cl)c4F)n3)cn2)cnc(N2C[C@H]3C[C@H]3C2=O)c1C (single isomer, unassigned) [Example 105]
Q: Could you please tell me which of these two has the higher IC50: P or Q ? Refer to your chosen item by its label in the answer.
Result: P

----------
Target Of Assay: Human plasma kallikrein (Homo sapiens (Human))
Test Summary: Kallikrein Assay (fluorogenic substrate Acetyl-K-P-R-AFC)
Run Parameters: Plasma Kallikrein (PKal)
Result Type: IC50 (nM)

Molecule: Cc1ncc(-c2c(C(F)F)ccc(Cl)c2F)nc1C(=O)Nc1cnn(C(C)c2ncc(N3C[C@H]4C[C@H]4C3=O)c(C)c2C)c1 (single isomer, unassigned)
IC50, nM: 0.8
--
Molecule: CC(c1cnc(N2C[C@H]3C[C@H]3C2=O)c2c1OC(F)(F)O2)n1cc(NC(=O)c2cncc(-c3c(C(F)F)ccc(Cl)c3F)n2)cn1 (single isomer, unassigned) [Example 248]
IC50, nM: 22.3

(A) Cc1nc(N2C[C@H]3C[C@H]3C2=O)ncc1C(C)n1cc(NC(=O)c2nc(-c3c(C(F)F)ccc(Cl)c3F)cc(=O)n2C)cn1 (single isomer, unassigned) [Example 79]
(B) COc1nc(N2C[C@H]3C[C@H]3C2=O)ncc1Cn1cc(NC(=O)c2nc(-c3c(C(F)F)ccc(Cl)c3F)cnc2C)cn1
Q: Higher IC50: A or B ? Your answer should be the label attached to the chosen record.
Result: B
